Reported pIC50 values for the following compounds.
Experimental Target: PameOBP1 (Periplaneta americana)
Sequence (B6E9U7 entry or part of it): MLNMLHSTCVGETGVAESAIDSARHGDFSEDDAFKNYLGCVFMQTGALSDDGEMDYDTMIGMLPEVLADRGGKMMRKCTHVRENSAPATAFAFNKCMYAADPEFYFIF
Experimental Details: Competitive fluorescence binding assay (1-NPN displacement), recombinant PameOBP1
Condition Notes: 2 μM 1-NPN as fluorescent reporter; competitor 0.25–2.5 μM or 2–40 μM; read-out: PameOBP1 IC50
pIC50: −log10 of the molar value.

Examples with answers:
> print(dat)
                                   compound  experimental.value
1  CC(=O)OC/C=C(\C)CCC=C(C)C [Geranyl acetate]              < 4.40
2  CC/C=C\CCOC(=O)CCCCC [Cis-3-hexenyl hexanoate]                4.61
3         CCCCCCCCCCCC(C)=O [2-Tridecanone]                5.69
4  C=CC(C)(O)CCC=C(C)CCC=C(C)C (mixture of isomers) [Nerolidol]              < 4.40
5              CCCCCCCCCCCCCC [Tetradecane]              < 4.40
6  CC(=O)CC/C=C(\C)CCC=C(C)C [Geranylacetone]              < 4.40
7  CC(C)=CCC/C(C)=C/CC/C(C)=C/CO [Farnesol]                6.00

# evaluate next
Query C=CC(C)(O)CC/C=C(\C)CCC=C(C)C (stereo not drawn) [Trans-nerolidol] yields pIC50 of < 4.40

Reference source: paper PMC5232348
